Target: ACE derived from bovine lung (Bos taurus)
Sequence (P12820 29-1306): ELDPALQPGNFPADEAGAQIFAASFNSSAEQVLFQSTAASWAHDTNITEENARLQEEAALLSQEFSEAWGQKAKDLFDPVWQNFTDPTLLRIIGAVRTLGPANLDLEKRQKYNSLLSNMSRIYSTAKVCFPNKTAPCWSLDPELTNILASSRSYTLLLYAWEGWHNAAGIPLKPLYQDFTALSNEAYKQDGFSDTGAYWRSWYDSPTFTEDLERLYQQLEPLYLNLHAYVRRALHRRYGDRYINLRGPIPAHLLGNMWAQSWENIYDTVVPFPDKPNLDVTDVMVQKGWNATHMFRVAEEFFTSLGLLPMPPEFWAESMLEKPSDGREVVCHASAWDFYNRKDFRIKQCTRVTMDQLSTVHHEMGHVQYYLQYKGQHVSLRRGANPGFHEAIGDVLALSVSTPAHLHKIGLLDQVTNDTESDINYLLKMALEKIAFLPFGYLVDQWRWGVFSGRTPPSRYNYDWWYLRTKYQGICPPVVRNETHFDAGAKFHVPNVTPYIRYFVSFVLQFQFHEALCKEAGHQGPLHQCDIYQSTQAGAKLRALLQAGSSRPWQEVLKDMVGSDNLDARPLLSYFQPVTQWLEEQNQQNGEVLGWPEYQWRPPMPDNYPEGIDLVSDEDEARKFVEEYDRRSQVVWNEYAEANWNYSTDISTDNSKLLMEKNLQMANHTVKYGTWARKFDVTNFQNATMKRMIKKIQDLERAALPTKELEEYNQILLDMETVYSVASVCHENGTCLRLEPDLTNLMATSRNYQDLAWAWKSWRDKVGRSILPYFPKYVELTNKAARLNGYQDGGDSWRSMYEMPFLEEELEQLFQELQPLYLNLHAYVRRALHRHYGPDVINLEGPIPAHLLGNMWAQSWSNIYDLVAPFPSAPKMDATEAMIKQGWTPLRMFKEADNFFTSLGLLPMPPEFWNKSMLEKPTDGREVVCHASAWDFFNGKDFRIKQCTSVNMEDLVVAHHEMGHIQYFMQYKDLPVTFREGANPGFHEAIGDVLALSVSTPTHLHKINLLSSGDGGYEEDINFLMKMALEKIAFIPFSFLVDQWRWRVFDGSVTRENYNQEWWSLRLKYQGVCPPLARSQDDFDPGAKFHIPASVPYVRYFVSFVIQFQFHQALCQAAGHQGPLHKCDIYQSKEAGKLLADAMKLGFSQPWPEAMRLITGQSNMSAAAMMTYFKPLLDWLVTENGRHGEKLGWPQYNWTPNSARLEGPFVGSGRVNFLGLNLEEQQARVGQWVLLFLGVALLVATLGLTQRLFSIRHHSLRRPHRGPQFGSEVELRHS
Peptide text beside a SMILES is read from it.
METRIC_NAME: IC50 (µM)

a = CC[C@H](C)[C@H](N)C(=O)N1CCC[C@H]1C(=O)O [Ile-Pro] (H-Ile-Pro-OH; N-terminus and C-terminus assumed)
b = NC(N)=NCCC[C@H](N)C(=O)N1CCC[C@H]1C(=O)O [Arg-Pro] (H-Arg-Pro-OH)
c = NC(=O)CC[C@H](N)C(=O)N1CCC[C@H]1C(=O)O [Gln-Pro] (H-Gln-Pro-OH)
d = N[C@@H](CCC(=O)O)C(=O)N1CCC[C@H]1C(=O)O [Glu-Pro] (H-Glu-Pro-OH; N-terminus and C-terminus assumed)
Falling order of IC50, please. Answer format: the labels, in the requested order. a, b, d, c
(a: 444 µM, b: 275 µM, d: 175 µM, c: 65.8 µM)
